tested on: coculture of keratinocytes and melanocytes; test: Cytotoxicity on coculture, estimated by leucine incorporation; assay type: cell-based
outcomeMeasure: Cytotoxicity on coculture

CCN(CC)C(=O)c1ccc[nH]c1=S [Compound 27, N,N-diethyl 2-mercaptonicotinamide] : Non-cytotoxic
COc1ccc(CCNC(=O)c2ccc[nH]c2=S)cc1 [Compound 16] : 100 µM
CCNC(=O)c1ccc[nH]c1=S [Compound 2] : Non-cytotoxic
O=C(NCC(O)CO)c1ccc[nH]c1=S (centres unmarked) [Compound 21] : Non-cytotoxic

Consider the additional compound presented here.
Lab request: please report Cytotoxicity on coculture under test system coculture of keratinocytes and melanocytes for NC(=O)c1cccnc1 [Niacinamide, reference compound] Non-cytotoxic

----------
system: coculture of keratinocytes and melanocytes; assay: Cytotoxicity on coculture, estimated by leucine incorporation; type: cell-based
outcomeMeasure: Cytotoxicity on coculture

O=C(NCCO)c1ccc[nH]c1=S : Non-cytotoxic
O=C(NC1CCCCC1)c1ccc[nH]c1=S : Non-cytotoxic
CCCCCNC(=O)c1ccc[nH]c1=S : Non-cytotoxic
O=c1cc(CO)occ1O [Kojic acid, reference compound] : 100 µM

Consider the additional compound presented here.
// query Cytotoxicity on coculture value for entry OC[C@H]1O[C@@H](Oc2ccc(O)cc2)[C@H](O)[C@@H](O)[C@@H]1O [Arbutin, reference compound] Non-cytotoxic
